target: Rap guanine nucleotide exchange factor 3 (Homo sapiens) (UniProt O95398); assay: Counterscreen qHTS for antagonist of cAMP-regulated guanine nucleotide exchange factor 3 (EPAC1) (AID 1645888); conditions: Rap1B-BODIPY-GDP nucleotide exchange, fluorescence; series mostly up to 154 µM;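 note: fluorescence loss as bound BODIPY-GDP is released from Rap1B; % of control where 0% means no effect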
Sequence (O95398 whole entry, looked up): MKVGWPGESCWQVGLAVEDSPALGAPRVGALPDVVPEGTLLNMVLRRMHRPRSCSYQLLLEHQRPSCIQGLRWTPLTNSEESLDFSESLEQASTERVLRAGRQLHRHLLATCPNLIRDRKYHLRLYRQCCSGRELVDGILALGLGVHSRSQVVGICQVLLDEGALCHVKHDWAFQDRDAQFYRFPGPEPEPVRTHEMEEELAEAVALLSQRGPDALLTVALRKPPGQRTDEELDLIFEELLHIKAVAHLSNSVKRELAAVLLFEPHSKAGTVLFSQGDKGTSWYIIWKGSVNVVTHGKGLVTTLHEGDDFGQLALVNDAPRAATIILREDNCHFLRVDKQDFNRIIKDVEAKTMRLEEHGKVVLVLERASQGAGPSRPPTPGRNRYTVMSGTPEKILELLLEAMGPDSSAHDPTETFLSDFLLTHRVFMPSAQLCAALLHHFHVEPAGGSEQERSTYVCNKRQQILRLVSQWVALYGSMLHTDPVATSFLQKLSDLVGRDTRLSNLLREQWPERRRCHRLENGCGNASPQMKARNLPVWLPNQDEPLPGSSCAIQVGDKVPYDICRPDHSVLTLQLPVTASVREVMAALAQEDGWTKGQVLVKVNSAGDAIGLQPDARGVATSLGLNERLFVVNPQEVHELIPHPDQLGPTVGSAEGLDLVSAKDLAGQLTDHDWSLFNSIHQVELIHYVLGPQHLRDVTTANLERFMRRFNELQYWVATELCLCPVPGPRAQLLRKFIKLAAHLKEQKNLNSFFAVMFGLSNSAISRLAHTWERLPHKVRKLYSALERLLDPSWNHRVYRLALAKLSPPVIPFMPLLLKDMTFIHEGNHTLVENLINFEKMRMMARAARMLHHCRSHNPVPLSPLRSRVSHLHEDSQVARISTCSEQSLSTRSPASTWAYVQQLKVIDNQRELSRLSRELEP
Results filed as inconclusive are left out. Calls of active or inactive are those of the source. Calls come from the whole dose curve; as a rule, active = well fitted inhibition curve with a large enough effect; inconclusive = small, poorly fitted or top-dose-only effect; inactive = no such curve, though single readings can be large or run the other way.
ENDPOINT LABEL: activity change, negative = inhibition

Worked examples, 10 compounds total:
CC(C)c1cccc(-c2ccc3c(c2)S(=O)(=O)c2cccc(C(=O)O)c2C3=O)c1; inactive
Cc1cc(=O)n(Cc2ccccc2)c2c1c(C)nn2C; inactive
CN(c1ccccc1)c1ccc(/C=C(/CCC(=O)O)c2nc3ccccc3s2)cc1[N+](=O)[O-]; inactive
CCOc1ccccc1NC(=O)N1CCC(N2CCN(Cc3ccccc3)C(=O)C2=O)CC1; inactive
COc1ccc(C2CC(c3cccs3)=NN2C(=O)c2ccco2)cc1OC (configuration not stated); -16.2% [at 30.8 µM] (inactive)
N=C1S/C(=C\c2ccco2)C(=O)N1c1ccc2c(c1)OCO2; inactive
CCCC(=O)OC1CC(C)N(C(=O)c2ccccc2)c2ccc(C)cc21 (configuration not stated); -2.85% [at 30.8 µM] (inactive)
Cc1c2cn[nH]c(=O)c2c(C)n1-c1ccccc1; inactive
COc1ccccc1Cc1c(-c2ccco2)nc2cc(C)c(Br)c(C)n12; -0.951% [at 30.8 µM] (inactive)
Cc1nn(-c2c(Cl)cc(Cl)cc2Cl)c(=O)c2ccccc12; inactive

Entry CCOC(=O)c1c(CSc2ccccc2)n(C)c2cc(Br)c(OCC(O)CNC(CO)(CO)CO)cc12 (configuration not stated) ; assay system Rap guanine nucleotide exchange factor 3 (Homo sapiens) (UniProt O95398); activity change, negative = inhibition recorded at inactive

Entry `Cc1ccc(C(=O)N(Cc2ccco2)Cc2sccc2C)cc1` ; assay system Rap guanine nucleotide exchange factor 3 (Homo sapiens) (UniProt O95398); activity change, negative = inhibition recorded at inactive

Entry `Cn1nc(-c2ccccc2)c2nc3ccccc3nc21` ; assay system Rap guanine nucleotide exchange factor 3 (Homo sapiens) (UniProt O95398); activity change, negative = inhibition recorded at inactive

Entry `N#Cc1c(SCC(=O)Nc2cccc(C(F)(F)F)c2)sc2c(O)cc(=O)[nH]c12` ; assay system Rap guanine nucleotide exchange factor 3 (Homo sapiens) (UniProt O95398); activity change, negative = inhibition recorded at -10.8% [at 30.8 µM] (inactive)

Entry `CCCc1nc2c3ccccc3ccn2c1CC(C)(C)C` ; assay system Rap guanine nucleotide exchange factor 3 (Homo sapiens) (UniProt O95398); activity change, negative = inhibition recorded at inactive

Entry `CC(C)(C)c1ccc(OCc2ccc(C(=O)N/N=C/c3ccc(O)c(O)c3)cc2)cc1` ; assay system Rap guanine nucleotide exchange factor 3 (Homo sapiens) (UniProt O95398); activity change, negative = inhibition recorded at -20.9% [at 30.8 µM] (inactive)

Entry `CCc1c(O)cc(=O)n(-c2ccccc2)c1-c1ccccc1` ; assay system Rap guanine nucleotide exchange factor 3 (Homo sapiens) (UniProt O95398); activity change, negative = inhibition recorded at inactive

Entry `CC(=O)Nc1ccc(S(=O)(=O)Nc2nc(-c3ccc(C(C)(C)C)cc3)cs2)cc1` ; assay system Rap guanine nucleotide exchange factor 3 (Homo sapiens) (UniProt O95398); activity change, negative = inhibition recorded at -15.7% [at 30.8 µM] (inactive)
